Value source: patent US12414961B2

- System: HBV
- EXPERIMENT DESCRIPTION: HBV antiviral assay
- Assay type: cell-based
- ASSAY CONTEXT: Hepatitis B virus
PARAMETER MEASURED: EC50

The compound identified as CC(C)OC(=O)[C@H](C)NP(=O)(OC[C@H]1O[C@@H](n2ccc(=O)[nH]c2=S)C(C)(O)[C@H]1O)Oc1ccccc1 (stereo partly shown) [drawing 394] registered its EC50 at > 100 µM

---

- System: Huh-7
- EXPERIMENT DESCRIPTION: Cytotoxicity (CC50) Huh-7
- ASSAY CONTEXT: read-out: Cytotoxicity (CC50 uM) Huh-7; Huh-7
PARAMETER MEASURED: CC50

Check out these entries, answers already filled in.
| COMPOUND | CC50 |
| --- | --- |
| CC(C)OC(=O)[C@H](C)N[P@](=O)(OC[C@H]1O[C@@H](n2ccc(=O)[nH]c2=S)[C@](C)(O)C1O)Oc1ccccc1 (stereo partly drawn) [drawing 371] | 252 µM |
| C[C@@]1(O)C(O)[C@@H](CO)O[C@H]1n1ccc(=S)[nH]c1=O (stereo partly drawn) | > 100 µM |

Consider now this further compound.
The compound identified as C[C@@]1(F)C(O)[C@@H](CO)O[C@H]1n1ccc(=S)[nH]c1=O (stereo partly drawn) registered its CC50 at > 400 µM

---

- Test system: Huh-7 cells
- EXPERIMENT DESCRIPTION: Cytotoxicity in Huh-7 cells (Dengue assay)
- ASSAY CONTEXT: read-out: CC50 uM; Cell Line Huh-7; […], 3, 4 table
PARAMETER MEASURED: CC50

Entry CC(C)OC(=O)[C@H](C)N[P@](=O)(OC[C@H]1O[C@@H](n2ccc(=O)[nH]c2=S)C(C)(O)[C@H]1O)Oc1ccccc1 (stereo partly shown) [drawing 393] ; assay system Huh-7 cells; CC50 recorded at > 100 µM

---

- Test system: BxPC3
- EXPERIMENT DESCRIPTION: Cytotoxicity (CC50) BxPC3
- ASSAY CONTEXT: read-out: Cytotoxicity (CC50 uM) BxPC3; BxPC3
PARAMETER MEASURED: CC50

| MOLECULE | ASSAY VALUE |
| --- | --- |
| CC(C)OC(=O)[C@H](C)NP(=O)(OC[C@H]1O[C@@H](n2ccc(=O)[nH]c2=S)[C@](C)(O)C1O)Oc1ccccc1 (some centres unmarked) [drawing 366] | > 300 µM |
| CC(C)OC(=O)[C@H](C)NP(=O)(OC[C@H]1O[C@@H](n2ccc(=O)[nH]c2=S)[C@](C)(O)C1O)Oc1ccccc1 (some centres unmarked) [drawing 369] | > 300 µM |
| C[C@@]1(O)C(O)[C@@H](CO)O[C@H]1n1ccc(=O)[nH]c1=S (some centres unmarked) | > 100 µM |
| C[C@@]1(O)C(O)[C@@H](CO)O[C@H]1n1ccc(=S)[nH]c1=O (some centres unmarked) | > 100 µM |

Consider now this further molecule.
The molecule identified as CC(C)OC(=O)[C@H](C)NP(=O)(OC[C@H]1O[C@@H](n2ccc(=O)[nH]c2=[Se])[C@](C)(O)C1O)Oc1ccccc1 (some centres unmarked) registered its CC50 at > 400 µM

---

- Test system: CEM
- EXPERIMENT DESCRIPTION: Cytotoxicity (CC50) CEM
- ASSAY CONTEXT: read-out: Cytotoxicity (CC50 uM) CEM; CEM
Consider the following compounds and their measured CC50 readings.

| COMPOUND | PARAMETER MEASURED | ASSAY VALUE |
| --- | --- | --- |
| CC(C)OC(=O)[C@H](C)NP(=O)(OC[C@H]1O[C@@H](n2ccc(=O)[nH]c2=S)[C@](C)(O)C1O)Oc1ccccc1 (stereo partly shown) [drawing 366] | CC50 | > 300 µM |

The compound identified as C[C@@]1(O)C(O)[C@@H](CO)O[C@H]1n1ccc(=O)[nH]c1=S (stereo partly shown) registered its CC50 at > 200 µM

The compound identified as C[C@@]1(F)C(O)[C@@H](CO)O[C@H]1n1ccc(=S)[nH]c1=O (stereo partly shown) registered its CC50 at > 400 µM

The compound identified as C[C@H](NP(=O)(O)OC[C@H]1O[C@@H](n2ccc(=O)[nH]c2=S)[C@](C)(O)C1O)C(=O)O (stereo partly shown) registered its CC50 at > 400 µM
